Listing: log10(IC50) of selected molecules
biological target: Mitogen-activated protein kinase 14 (Homo sapiens); test: In vitro inhibitory activity against Mitogen-activated protein kinase p38
Sequence (Q16539 whole entry): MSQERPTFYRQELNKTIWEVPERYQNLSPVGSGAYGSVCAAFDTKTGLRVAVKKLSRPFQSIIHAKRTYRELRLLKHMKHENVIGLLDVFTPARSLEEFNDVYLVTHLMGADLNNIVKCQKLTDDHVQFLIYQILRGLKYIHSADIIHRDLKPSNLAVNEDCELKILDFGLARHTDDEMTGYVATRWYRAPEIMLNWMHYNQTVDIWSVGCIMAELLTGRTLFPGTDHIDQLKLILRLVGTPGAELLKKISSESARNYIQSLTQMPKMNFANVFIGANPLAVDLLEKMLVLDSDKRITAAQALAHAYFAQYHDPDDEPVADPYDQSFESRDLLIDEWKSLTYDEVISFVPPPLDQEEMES
Response schema: value (number) is log10 of IC50 in units of nM.

c1ccc(-c2n[nH]c(C3CC3)c2-c2ccnc3ccccc23)nc1 = 2.45
c1ccc(-c2n[nH]cc2-c2ccnc3ccccc23)nc1 = 2.87
Brc1cccc(-c2n[nH]cc2-c2ccnc3ccccc23)n1 = 2.04
c1csc(-c2n[nH]cc2-c2ccnc3ccccc23)c1 = 2.60
FC(F)(F)c1cccc(-c2n[nH]cc2-c2ccnc3ccccc23)c1 = 0.83
Cc1cccc(-c2n[nH]c(C)c2-c2ccnc3ccccc23)n1 = 2.40

Now, please, on to the next molecule.
Return log10(IC50) for the following molecule: "Fc1ccc(-c2n[nH]cc2-c2ccnc3ccccc23)nc1" 3.11
